- STUDY_TARGET: T1, shFcRn (soluble human FcRn) (human, UniProt P55899 24-297; P61769 21-119)
- T1 construct: extracellular domain; Printed only as 'soluble human FcRn'; also called hFcRn (immobilized on a chip)
- T1 sequence (P55899 24-297 limits assumed, chain 1 of 2): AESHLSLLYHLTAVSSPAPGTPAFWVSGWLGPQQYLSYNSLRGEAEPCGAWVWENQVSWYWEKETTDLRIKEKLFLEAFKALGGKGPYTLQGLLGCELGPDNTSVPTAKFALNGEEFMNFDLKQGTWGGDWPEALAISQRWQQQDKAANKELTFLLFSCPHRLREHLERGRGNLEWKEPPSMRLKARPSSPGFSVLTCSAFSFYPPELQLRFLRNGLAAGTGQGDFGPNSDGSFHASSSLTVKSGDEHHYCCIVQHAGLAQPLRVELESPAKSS
- T1 sequence (P61769 21-119 limits assumed, chain 2 of 2): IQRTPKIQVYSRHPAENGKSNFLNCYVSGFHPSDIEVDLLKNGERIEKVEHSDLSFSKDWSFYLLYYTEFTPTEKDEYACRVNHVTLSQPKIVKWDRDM
- ASSAY_METHOD_TEXT: SPR, hFcRn immobilized on chip, pH 7.4
VALUE_TYPE: Kd (pM)

{"BINDER": "HL161AN (antibody, human IgG1, V domains shown, also called HL161AN RS) VL: SYVLTQPPSVSVAPGQTARITCGGNNIGSTSVHWYQQKPGQAPVLVVHDDSDRPSGIPERFSGSNSGNTATLTISRVEAGDEADYYCQVRDSSSDHVIFGGGTKLTVLGQPKAAPSVTL VH: EVQLLESGGGLVQPGGSLRLSCAASEFTFGSCVMTWVRQAPGKGLEWVSVISGSGGSTYYADSVKGRFTISRDNSKNTLYLQMNSLRAEDTAVYYCAKTPWWLRSPFFDYWGQGTLVTVSS", "VALUE_TYPE": "Kd", "OBSERVED": 270}
{"BINDER": "HL161AN variant No. 7 (LC:N25S, HC:C32S Q82T) (antibody, human IgG1, V domains shown, Variable domains only) VL: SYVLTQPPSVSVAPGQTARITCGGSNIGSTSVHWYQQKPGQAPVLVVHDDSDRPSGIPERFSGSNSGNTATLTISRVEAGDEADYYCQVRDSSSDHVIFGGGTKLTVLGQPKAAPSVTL VH: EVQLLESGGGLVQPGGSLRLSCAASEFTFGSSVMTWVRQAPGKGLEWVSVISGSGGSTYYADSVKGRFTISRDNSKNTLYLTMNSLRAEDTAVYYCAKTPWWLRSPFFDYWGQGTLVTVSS", "VALUE_TYPE": "Kd", "OBSERVED": 210}
{"BINDER": "HL161AN variant No. 5 (LC:N25S, HC:Q82E) (antibody, human IgG1, V domains shown, Variable domains only) VL: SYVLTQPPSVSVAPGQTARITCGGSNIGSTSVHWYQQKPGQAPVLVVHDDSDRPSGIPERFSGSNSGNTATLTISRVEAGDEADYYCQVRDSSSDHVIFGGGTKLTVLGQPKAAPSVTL VH: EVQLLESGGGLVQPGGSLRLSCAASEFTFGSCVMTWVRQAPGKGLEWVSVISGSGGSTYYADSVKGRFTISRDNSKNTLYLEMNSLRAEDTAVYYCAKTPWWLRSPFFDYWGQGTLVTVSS", "VALUE_TYPE": "Kd", "OBSERVED": 670}
{"BINDER": "HL161AN variant No. 12 (LC:N25Q, HC:C32S) (antibody, V domains shown, also called HL161ANQ; #12 (HL161ANQ)) VL: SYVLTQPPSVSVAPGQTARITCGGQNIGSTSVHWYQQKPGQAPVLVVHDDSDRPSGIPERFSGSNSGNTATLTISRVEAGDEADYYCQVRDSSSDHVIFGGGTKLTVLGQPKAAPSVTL VH: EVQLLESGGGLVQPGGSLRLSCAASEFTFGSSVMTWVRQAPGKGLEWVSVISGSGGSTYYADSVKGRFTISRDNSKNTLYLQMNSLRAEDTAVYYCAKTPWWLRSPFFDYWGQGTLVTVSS", "VALUE_TYPE": "Kd", "OBSERVED": 210}
{"BINDER": "HL161AN variant No. 14 (LC:N25Q, HC:Q82S) (antibody, human IgG1, V domains shown, Variable domains only) VL: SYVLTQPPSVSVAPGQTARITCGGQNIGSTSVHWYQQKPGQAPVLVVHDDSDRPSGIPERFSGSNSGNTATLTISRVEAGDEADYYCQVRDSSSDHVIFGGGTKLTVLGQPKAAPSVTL VH: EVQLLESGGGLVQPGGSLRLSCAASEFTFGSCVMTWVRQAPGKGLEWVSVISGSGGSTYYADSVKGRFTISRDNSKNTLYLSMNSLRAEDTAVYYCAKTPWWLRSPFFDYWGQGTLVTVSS", "VALUE_TYPE": "Kd", "OBSERVED": 350}
